target: Beta-3 adrenergic receptor (Rattus norvegicus); assay: Agonist activity at rat beta-3 adrenergic receptor expressed in CHO cells assessed as increase in intracellular cAMP accumulation after 30 mins by time-resolved fluorescence assay
Sequence (P26255 whole entry): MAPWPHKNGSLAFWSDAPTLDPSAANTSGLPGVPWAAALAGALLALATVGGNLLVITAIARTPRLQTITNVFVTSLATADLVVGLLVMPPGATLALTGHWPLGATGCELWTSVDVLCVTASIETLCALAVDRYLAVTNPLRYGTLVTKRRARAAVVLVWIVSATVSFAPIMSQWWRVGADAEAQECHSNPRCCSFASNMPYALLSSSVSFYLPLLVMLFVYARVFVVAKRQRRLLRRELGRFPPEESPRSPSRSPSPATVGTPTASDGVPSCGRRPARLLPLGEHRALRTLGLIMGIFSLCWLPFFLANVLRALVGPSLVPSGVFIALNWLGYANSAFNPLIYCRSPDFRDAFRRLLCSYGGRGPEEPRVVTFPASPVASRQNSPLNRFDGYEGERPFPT
pEC50: −log10 of the molar value.
measured-attribute: pEC50

[P] Nc1nc2c(s1)CC[C@H]2C(=O)Nc1ccc(C[C@@H]2CC[C@H]([C@H](O)c3ccccc3)N2)cc1
[Q] O=C(Nc1ccc(C[C@@H]2CC[C@H]([C@H](O)c3cccnc3)N2)cc1)[C@@H]1CCc2ccnn21
[R] O=C(Nc1ccc(C[C@@H]2CC[C@H]([C@H](O)c3cccnc3)N2)cc1)[C@@H]1CCc2scnc21
Q: Give the order of the entries above, sorted from least to greatest pEC50. Write the labels out in the order the request specifies.
Result: Q, R, P

---

test: Plasma clearance in Beagle dog at 3 mg/kg, iv; assay type: ADME, organism-based, Canis lupus familiaris; parameters: dose 3 mg/kg, route intravenous
measured-attribute: clearance (mL/min/kg)
Supply the numeric figure in mL/min/kg, leaving out any unit text.

Q: Return the recorded clearance value; entry: O=S(=O)(Nc1ccc(CCNC[C@H](O)c2cccnc2)cc1)c1ccc(-c2nc(-c3ccc(C(F)(F)F)cc3)cs2)cc1
Result: 20

---

assay: Plasma clearance in Sprague-Dawley rat at 1 mg/kg, iv and 2 mg/kg, po; format: ADME, organism-based
measured-attribute: clearance (mL/min/kg)

chemical-string	recorded-measurement
O=C(Nc1ccc(C[C@@H]2CC[C@H]([C@H](O)c3cccnc3)N2)cc1)[C@@H]1CCc2scnc21	33

[P] Cc1nc2c(s1)CC[C@H]2C(=O)Nc1ccc(C[C@@H]2CC[C@H]([C@H](O)c3ccccc3)N2)cc1
[Q] O=C(Nc1ccc(C[C@@H]2CC[C@H]([C@H](O)c3cccnc3)N2)cc1)[C@@H]1CCc2ccnn21
[R] Nc1nc2c(s1)CC[C@H]2C(=O)Nc1ccc(C[C@@H]2CC[C@H]([C@H](O)c3ccccc3)N2)cc1
Q: Reorder the items by clearance, least to greatest. Write the labels out in the order the request specifies.
Result: Q, R, P
(Q: 24 mL/min/kg, R: 50 mL/min/kg, P: 87 mL/min/kg)

---

assay: Oral bioavailability in Beagle dog at 2 mg/kg; format: ADME, organism-based, Canis lupus familiaris; settings: in vivo
measured-attribute: bioavailability (%)

[1] O=C(Nc1ccc(C[C@@H]2CC[C@H]([C@H](O)c3cccnc3)N2)cc1)[C@@H]1CCc2ccnn21
[2] O=C(Nc1ccc(C[C@@H]2CC[C@H]([C@H](O)c3cccnc3)N2)cc1)[C@@H]1CCc2scnc21
Q: Pick one: 1 or 2 . Which has the bigger bioavailability number? The response must carry the label of the picked entry.
Result: 1

---

assay: Plasma clearance in Sprague-Dawley rat at 3 mg/kg, iv; format: ADME, organism-based; set-up: dose 3 mg/kg, route intravenous
measured-attribute: clearance (mL/min/kg)
Supply the numeric figure in mL/min/kg, leaving out any unit text.

Q: Return the recorded clearance value; entry: O=S(=O)(Nc1ccc(CCNC[C@H](O)c2cccnc2)cc1)c1ccc(-c2nc(-c3ccc(C(F)(F)F)cc3)cs2)cc1
Result: 62

---

molecular target: Beta-1 adrenergic receptor (Homo sapiens); assay: Displacement of [125I]-cyanopindolol from recombinant human beta-1 adrenergic receptor expressed in CHO cell membranes after 1 hr by scintillation counting analysis
Sequence (P08588 whole entry): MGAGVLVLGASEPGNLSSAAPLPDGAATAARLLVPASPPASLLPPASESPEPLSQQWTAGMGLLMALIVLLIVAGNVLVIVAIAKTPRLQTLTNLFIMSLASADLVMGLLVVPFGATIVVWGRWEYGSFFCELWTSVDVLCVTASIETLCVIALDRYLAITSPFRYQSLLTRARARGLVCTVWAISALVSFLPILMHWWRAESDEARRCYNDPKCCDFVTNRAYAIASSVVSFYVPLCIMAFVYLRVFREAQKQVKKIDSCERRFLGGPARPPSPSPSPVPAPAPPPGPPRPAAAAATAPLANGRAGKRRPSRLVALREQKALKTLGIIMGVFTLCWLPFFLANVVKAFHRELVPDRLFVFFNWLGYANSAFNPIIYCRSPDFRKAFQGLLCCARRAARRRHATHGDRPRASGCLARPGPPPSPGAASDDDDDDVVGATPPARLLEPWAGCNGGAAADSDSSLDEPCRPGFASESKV
measured-attribute: IC50

molecule	IC50
O=C(Nc1ccc(C[C@@H]2CC[C@H]([C@H](O)c3cccnc3)N2)cc1)[C@@H]1CCc2ccnn21	> 20 µM
Cc1nc2c(s1)CC[C@H]2C(=O)Nc1ccc(C[C@@H]2CC[C@H]([C@H](O)c3ccccc3)N2)cc1	> 20 µM
C[C@@H](C(=O)Nc1ccc(C[C@@H]2CC[C@H]([C@H](O)c3cccnc3)N2)cc1)n1cccn1	> 20 µM

Q: Return the recorded IC50 value; entry: CCC[C@@H](C(=O)Nc1ccc(C[C@@H]2CC[C@H]([C@H](O)c3ccccc3)N2)cc1)c1csc(N)n1
Result: > 20 µM

Q: Return the recorded IC50 value; entry: Nc1nc2c(s1)CC[C@H]2C(=O)Nc1ccc(C[C@@H]2CC[C@H]([C@H](O)c3cccc(F)c3)N2)cc1
Result: > 20 µM

Q: Return the recorded IC50 value; entry: Nc1nc2c(s1)CC[C@H]2C(=O)Nc1ccc(C[C@@H]2CC[C@H]([C@H](O)c3ccc(F)cc3)N2)cc1
Result: > 20 µM

Q: Return the recorded IC50 value; entry: O=C(Cn1cccn1)Nc1ccc(C[C@@H]2CC[C@H]([C@H](O)c3cccnc3)N2)cc1
Result: > 20 µM

Q: Return the recorded IC50 value; entry: Nc1nc(CC(=O)Nc2ccc(C[C@@H]3CCC([C@H](O)c4ccccc4)N3)cc2)cs1 (single isomer, unassigned)
Result: > 20 µM

Q: Return the recorded IC50 value; entry: O=C(Nc1ccc(C[C@@H]2CC[C@H]([C@H](O)c3ccccc3)N2)cc1)[C@@H]1CCc2sc(-c3ccc(F)cc3)nc21
Result: 4.33 µM

Q: Return the recorded IC50 value; entry: O=C(Nc1ccc(C[C@@H]2CC[C@H]([C@H](O)c3ccccc3)N2)cc1)[C@@H]1CCc2scnc21
Result: > 20 µM

Q: Return the recorded IC50 value; entry: O=C(Nc1ccc(C[C@@H]2CC[C@H]([C@H](O)c3cccnc3)N2)cc1)[C@@H]1CCc2sc(C3CC3)nc21
Result: > 20 µM

---

experiment: Intrinsic clearance in rat liver microsomes; format: ADME; details: read-out: CLH
measured-attribute: CLint scaled (mL/min/kg)

Use these answered entries as a reference point.
compound	display-unit	CLint scaled
Nc1nc2c(s1)CC[C@H]2C(=O)Nc1ccc(C[C@@H]2CC[C@H]([C@H](O)c3cccnc3)N2)cc1	mL/min/kg	57
Cc1nc2c(s1)CC[C@H]2C(=O)Nc1ccc(C[C@@H]2CC[C@H]([C@H](O)c3cccnc3)N2)cc1	mL/min/kg	62
Nc1nc2c(s1)CCC[C@H]2C(=O)Nc1ccc(C[C@@H]2CC[C@H]([C@H](O)c3ccccc3)N2)cc1	mL/min/kg	63
Nc1nc2c(s1)CC[C@H]2C(=O)Nc1ccc(C[C@@H]2CC[C@H]([C@H](O)c3ccccc3)N2)cc1	mL/min/kg	59

[a] O=C(Nc1ccc(C[C@@H]2CC[C@H]([C@H](O)c3cccnc3)N2)cc1)[C@@H]1CCc2ccnn21
[b] Cc1nc2c(s1)CC[C@H]2C(=O)Nc1ccc(C[C@@H]2CC[C@H]([C@H](O)c3ccccc3)N2)cc1
[c] Nc1nc(CC(=O)Nc2ccc(C[C@@H]3CCC([C@H](O)c4ccccc4)N3)cc2)cs1 (single isomer, unassigned)
Q: Reorder the items by CLint scaled, least to greatest. Write the labels out in the order the request specifies.
Result: c, a, b

---

assay: Half life in Beagle dog at 1 mg/kg, iv and 2 mg/kg, po; format: ADME, organism-based, Canis lupus familiaris; conditions: in vivo
measured-attribute: half-life (h)

chemical-string	measured-attribute	recorded-measurement
O=C(Nc1ccc(C[C@@H]2CC[C@H]([C@H](O)c3cccnc3)N2)cc1)[C@@H]1CCc2ccnn21	half-life	8
O=C(Nc1ccc(C[C@@H]2CC[C@H]([C@H](O)c3cccnc3)N2)cc1)[C@@H]1CCc2scnc21	half-life	6

---

assay: Half life in Beagle dog at 3 mg/kg, iv; assay type: ADME, organism-based, Canis lupus familiaris; set-up: dose 3 mg/kg, route intravenous; details: in vivo
measured-attribute: half-life (h)
Supply the numeric figure in h, leaving out any unit text.

Q: Return the recorded half-life value; entry: O=S(=O)(Nc1ccc(CCNC[C@H](O)c2cccnc2)cc1)c1ccc(-c2nc(-c3ccc(C(F)(F)F)cc3)cs2)cc1
Result: 14

---

assay: Oral bioavailability in rhesus monkey at 2 mg/kg; assay type: ADME, organism-based, Macaca mulatta; conditions: in vivo
measured-attribute: bioavailability (%)

chemical-string	bioavailability [%]
O=C(Nc1ccc(C[C@@H]2CC[C@H]([C@H](O)c3cccnc3)N2)cc1)[C@@H]1CCc2scnc21	8
O=C(Nc1ccc(C[C@@H]2CC[C@H]([C@H](O)c3cccnc3)N2)cc1)[C@@H]1CCc2ccnn21	11

---

experiment: Half life in Sprague-Dawley rat at 1 mg/kg, iv and 2 mg/kg, po; type: ADME, organism-based; conditions: in vivo
measured-attribute: half-life (h)

compound	recorded-measurement
Nc1nc2c(s1)CC[C@H]2C(=O)Nc1ccc(C[C@@H]2CC[C@H]([C@H](O)c3ccccc3)N2)cc1	4
Nc1nc2c(s1)CC[C@H]2C(=O)Nc1ccc(C[C@@H]2CC[C@H]([C@H](O)c3cccnc3)N2)cc1	4
Cc1nc2c(s1)CC[C@H]2C(=O)Nc1ccc(C[C@@H]2CC[C@H]([C@H](O)c3ccccc3)N2)cc1	1

[a] Nc1nc(CC(=O)Nc2ccc(C[C@@H]3CCC([C@H](O)c4ccccc4)N3)cc2)cs1 (single isomer, unassigned)
[b] Cc1nc2c(s1)CC[C@H]2C(=O)Nc1ccc(C[C@@H]2CC[C@H]([C@H](O)c3cccnc3)N2)cc1
[c] C[C@@H](C(=O)Nc1ccc(C[C@@H]2CC[C@H]([C@H](O)c3cccnc3)N2)cc1)n1cccn1
[d] Nc1nc2c(s1)CCC[C@H]2C(=O)Nc1ccc(C[C@@H]2CC[C@H]([C@H](O)c3ccccc3)N2)cc1
Q: Reorder the items by half-life, least to greatest. Write the labels out in the order the request specifies.
Result: b, c, d, a
(b: 1 h, c: 2 h, d: 3 h, a: 8 h)
